Tested on: rat L6 myoblast cell line
procedure.summary: primary screening on the rat L6 myoblast cell line (specificity/cytotoxicity)
Type: cell-based
condition.notes: first primary screening
pIC50: −log10 of the molar value.
measurement.name: pIC50

> print(dat)
                           substance.smiles  measurement.name  reported.value
1  CC1=C(Cc2cnc(C(F)(F)F)nc2)C(=O)c2ccccc2C1=O             pIC50            4.32
2  CC1=C(Cc2ccc(C(F)(F)F)nc2)C(=O)c2ccccc2C1=O             pIC50            3.75

* * *

Tested on: Plasmodium falciparum NF54 strain
procedure.summary: primary screening of antimalarial activity, Plasmodium falciparum NF54 strain
Assay type: cell-based
condition.notes: Plasmodium falciparum NF54 strain, first primary screening
Measured IC50 by item
measurement.name: IC50 (µM)

> print(dat)
                           substance.smiles                   target.or.system  measurement.name  reported.value
1  CC1=C(Cc2cnc(C(F)(F)F)nc2)C(=O)c2ccccc2C1=O  Plasmodium falciparum NF54 strain              IC50           0.065
2  CC1=C(Cc2ccc(C(F)(F)F)nc2)C(=O)c2ccccc2C1=O  Plasmodium falciparum NF54 strain              IC50           0.006
